Here, each record is paired with measured Resistance found in A2780cis data.
Tested on: A2780cis
testProtocol: In vitro cytotoxicity, MTT assay
Assay type: cell-based, human
conditionsUsed: IC50 of A2780cis cells / IC50 of A2780 cells

In the examples that follow, each entry is paired with its recorded Resistance found in A2780cis.
IN: Please report the recorded Resistance found in A2780cis for COc1cccc2c1C(=O)c1c(O)c3c(c(O)c1C2=O)C[C@@](O)(C(=O)CO)C[C@@H]3O[C@H]1C[C@H](N)[C@H](O)[C@H](C)O1 [DOX, Doxorubicin, reference compound] .
OUT: 1.20

IN: Please report the recorded Resistance found in A2780cis for COC(=O)c1ccc(C2=C3C=CC(=N3)C(c3ccccc3)=c3ccc4[n]3[Au+][n]3c(ccc32)C(c2ccccc2)=C2C=CC(=N2)C=4c2ccccc2)cc1.[Cl-] [Compound 3, [Au(TPP–COOCH3)]^+] .
OUT: 1.0

IN: Please report the recorded Resistance found in A2780cis for N.N.[Cl][Pt][Cl] [Cisplatin, cisplatin, reference compound] .
OUT: 3.23

***
IN: Please report the recorded Resistance found in A2780cis for C1=Cc2nc1c(-c1ccccc1)c1ccc([n-]1)c(-c1ccccc1)c1nc(c(-c3ccccc3)c3ccc([n-]3)c2-c2ccccc2)C=C1.[Au+3].[Cl-] [Au1a, [Au(TPP)]Cl, reference compound] .
OUT: 1.49

* * *

Test system: MIHA
testProtocol: In vitro cytotoxicity, MTT assay
Type: cell-based
conditionsUsed: MTT assay, 72 h incubation, read-out: IC50
propertyMeasured: IC50 (nM)
Give a bare numeral; the unit nM is implied.

In the examples that follow, each entry is paired with its recorded IC50.
IN: // map COc1cccc2c1C(=O)c1c(O)c3c(c(O)c1C2=O)C[C@@](O)(C(=O)CO)C[C@@H]3O[C@H]1C[C@H](N)[C@H](O)[C@H](C)O1 [DOX, Doxorubicin, reference compound] to recorded IC50 (system: MIHA)
OUT: 100

IN: // map N.N.[Cl][Pt][Cl] [Cisplatin, cisplatin, reference compound] to recorded IC50 (system: MIHA)
OUT: 17600

IN: // map C1=Cc2nc1c(-c1ccccc1)c1ccc([n-]1)c(-c1ccccc1)c1nc(c(-c3ccccc3)c3ccc([n-]3)c2-c2ccccc2)C=C1.[Au+3].[Cl-] [Au1a, [Au(TPP)]Cl, reference compound] to recorded IC50 (system: MIHA)
OUT: 400

Let's switch to this compound now.
IN: // map COC(=O)c1ccc(C2=C3C=CC(=N3)C(c3ccccc3)=c3ccc4[n]3[Au+][n]3c(ccc32)C(c2ccccc2)=C2C=CC(=N2)C=4c2ccccc2)cc1.[Cl-] [Compound 3, [Au(TPP–COOCH3)]^+] to recorded IC50 (system: MIHA)
OUT: 740

* * *

Test system: A2780adr
testProtocol: In vitro cytotoxicity, MTT assay
Assay type: cell-based, human
conditionsUsed: read-out: DOX at IC50; A2780adr, 72 h
propertyMeasured: IC50 (nM)
Give a bare numeral; the unit nM is implied.

IN: // map COc1cccc2c1C(=O)c1c(O)c3c(c(O)c1C2=O)C[C@@](O)(C(=O)CO)C[C@@H]3O[C@H]1C[C@H](N)[C@H](O)[C@H](C)O1 [DOX, Doxorubicin, reference compound] to recorded IC50 (system: A2780adr)
OUT: 680
